Reported pIC50 by item:
Measured target: Human fibrinogen receptor (αIIbβ3) (Homo sapiens, UniProt P05106+P08514)
Construct: Human fibrinogen receptor (αIIbβ3) was purified from outdated platelets; from tissue; host or cells: outdated human platelets
Assay procedure: Purified IIb/IIIa receptor assay (solid phase receptor assay, competition with biotinylated vitronectin)
Format: binding
Experimental setup: read-out: IIb/IIIa IC50
Counter-ions that a name gives are not always drawn.
Recall that pIC50 is obtained by taking minus log10 of the concentration measured in molar.

COC(=O)CC(NC(=O)CNC(=O)c1cccc(NC(=N)N)c1)c1ccsc1 (racemic) [Example 57, trifluoroacetate salt]; 4.82
N=C(N)Nc1cccc(C(=O)NCC(=O)NC(CC(=O)O)C(=O)NCCO)c1 (racemic) [Example 89, trifluoroacetate salt]; 5.01
CC(NC(=O)c1cccc(NC(=N)N)c1)C(=O)NC(CC(=O)O)c1cccnc1 (stereo not shown) [Example 82]; 6.45
N=C(N)Nc1cccc(C(=O)NCC(=O)NC(CC(=O)O)c2ccc(Br)c(Br)c2)c1 (racemic) [Example 207, trifluoroacetate salt]; 6.83
N=C(N)Nc1cccc(C(=O)NCC(=O)NC(CC(=O)O)c2ccco2)c1 (racemic) [Example 55, trifluoroacetate salt]; 6.93

Consider now this further compound.
Challenge: Fill in the blank: the reported pIC50 of N=C(N)Nc1cccc(C(=O)NCC(=O)N[C@@H](CC(=O)O)CS(=O)(=O)c2ccccc2C(=O)O)c1 [Example 71, TFA salt] is ____.
Response given: 6.69

###

Measured target: Human vitronectin receptor (αvβ3) (Homo sapiens, UniProt P05106+P06756)
Construct: Human vitronectin receptor (αvβ3) was purified from human placenta; from tissue; host or cells: human placenta
Assay procedure: Vitronectin adhesion assay (solid phase receptor assay, competition with biotinylated vitronectin)
Type: binding
Experimental setup: read-out: AvB3 IC50
Structures can show the parent of a compound that is named as a salt.
Reported pIC50 by item:
Recall that pIC50 is obtained by taking minus log10 of the concentration measured in molar.

# example entries with known answers
N=C(N)Nc1cccc(C(=O)NCC(=O)NC(CC(=O)O)c2cc([N+](=O)[O-])ccc2O)c1 (racemic) [Example 226, trifluoroacetate salt]; 8.15
CCOC(=O)NC(=S)Nc1cccc(C(=O)NCC(=O)NC(CC(=O)O)c2cc(Cl)cc(Cl)c2)c1 (stereo not drawn) [Example 240]; 4.31
N=C(N)Nc1cccc(C(=O)NCC(=O)NC(CC(=O)O)c2ccc(Br)c(Br)c2)c1 (racemic) [Example 207, trifluoroacetate salt]; 9.05
O=C(O)CC(NC(=O)CNC(=O)c1cccc(NC(=O)NCc2nc3ccccc3[nH]2)c1)c1cc(Cl)cc(Cl)c1 (stereo not drawn) [Example 272, trifluoroacetate salt]; 6.05
O=C(O)CC(NC(=O)CNC(=O)c1cccc(NC2=NCCCC2)c1)c1cc(Cl)cc(Cl)c1 (racemic) [Example 205, trifluoroacetate salt]; 8.77

Challenge: Fill in the blank: the reported pIC50 of N=C(N)Nc1cccc(C(=O)NCC(=O)NC(CC(=O)O)c2cccc(Cl)c2)c1 (racemic) [Example 183, trifluoroacetate salt] is ____.
Response given: 8.80

###

Measured target: Human vitronectin receptor (αvβ3) (Homo sapiens, UniProt P05106+P06756)
Construct: Human vitronectin receptor (αvβ3) was purified from human placenta; from tissue; host or cells: human placenta
Assay procedure: Vitronectin adhesion assay (solid phase receptor assay, competition with biotinylated vitronectin)
Type: binding
Experimental setup: AvB3 IC50
Measure name: IC50

Challenge: Fill in the blank: the reported IC50 of N=C(N)Nc1cccc(C(=O)NCC(=O)N[C@H](COC(=O)c2ccccc2N)CC(=O)O)c1 [Example 94, monohydrate] is ____.
Response given: 1.16 nM

###

Measured target: Human fibrinogen receptor (αIIbβ3) (Homo sapiens, UniProt P05106+P08514)
Construct: Human fibrinogen receptor (αIIbβ3) was purified from outdated platelets; from tissue; host or cells: outdated human platelets
Assay procedure: Purified IIb/IIIa receptor assay (solid phase receptor assay, competition with biotinylated vitronectin)
Type: binding
Experimental setup: read-out: IIb/IIIa IC50
Counter-ions that a name gives are not always drawn.
Reported pIC50 by item:
Recall that pIC50 is obtained by taking minus log10 of the concentration measured in molar.

# example entries with known answers
N=C(N)Nc1ccc(Cl)c(C(=O)NCC(=O)NC(CC(=O)O)c2ccccc2)c1 (stereo not shown) [Example 155]; 7.09
Cc1ccc(C)c(C(CC(=O)O)NC(=O)CNC(=O)c2cccc(NC(=N)N)c2)c1 (racemic) [Example 181, trifluoroacetate salt]; 4.64
N=C(Nc1cccc(C(=O)NCC(=O)NC(CC(=O)O)c2cccnc2)c1)c1ccccc1 (racemic) [Example 26]; 6.09
O=C(O)CC(NC(=O)CNC(=O)c1cccc(NC2=NCCCCC2)c1)c1cccnc1 (racemic) [Example 12]; 6.23
N=C(N)Nc1cccc(C(=O)NCC(=O)NC(CC(=O)O)c2cncnc2)c1 (stereo not shown) [Example 243, trifluoroacetate salt]; 7.63
N=C(N)Nc1cccc(C(=O)NCC(=O)NC(CC(=O)O)c2ccc(F)cc2)c1 (stereo not shown) [Example 363, trifluoroacetate salt]; 6.29

Consider now this further compound.
Challenge: Fill in the blank: the reported pIC50 of N=C(N)Nc1cccc(C(=O)NCC(=O)NC(CC(=O)O)c2ccoc2)c1 (racemic) [Example 52, trifluoroacetate salt] is ____.
Response given: 6.86

###

Measured target: Human vitronectin receptor (αvβ3) (Homo sapiens, UniProt P05106+P06756)
Construct: Human vitronectin receptor (αvβ3) was purified from human placenta; from tissue; host or cells: human placenta
Assay procedure: Vitronectin adhesion assay (solid phase receptor assay, competition with biotinylated vitronectin)
Type: binding
Experimental setup: read-out: AvB3 IC50
Counter-ions that a name gives are not always drawn.
Measure name: pIC50
Recall that pIC50 is obtained by taking minus log10 of the concentration measured in molar.

# example entries with known answers
Cc1ccc(S(=O)(=O)NCC(CC(=O)O)NC(=O)CNC(=O)c2cccc(NC(=N)N)c2)cc1 (stereo not drawn) [Example 65, trifluoroacetate salt]; 8.01
N=C(N)Nc1cccc(C(=O)NCC(=O)NC(CC(=O)O)c2ccc(Br)s2)c1 (stereo not drawn) [Example 366, trifluoroacetate salt, monohydrate]; 9.36
Cc1cc(C)cc(C(CC(=O)O)NC(=O)CNC(=O)c2cccc(NC(=N)N)c2)c1 (racemic) [Example 193, trifluoroacetate salt]; 8.59
O=C(O)CC(NC(=O)CNC(=O)c1cccc(NC2=NCCN2)c1)c1cc(Cl)cc(Cl)c1 (racemic) [Example 191, trifluoroacetate salt]; 9.31
N=C(N)Nc1cccc(C(=O)NC2CCN(CCC(=O)O)C2=O)c1 (racemic) [Example 42, trifluoroacetate salt]; 6.91

Challenge: Form: Entry = O=C(O)CC(NC(=O)CNC(=O)c1cccc(NC2=NCCCN2)c1)c1cc(Cl)cc(Cl)c1O (racemic) [Example 237, trifluoroacetate salt, monohydrate] | System = Human vitronectin receptor (αvβ3) (Homo sapiens, UniProt P05106+P06756) | pIC50 = ____
Response given: 9.24

###

Measured target: Human vitronectin receptor (αvβ3) (Homo sapiens, UniProt P05106+P06756)
Construct: Human vitronectin receptor (αvβ3) was purified from human placenta; from tissue; host or cells: human placenta
Assay procedure: Vitronectin adhesion assay (solid phase receptor assay, competition with biotinylated vitronectin)
Type: binding
Experimental setup: read-out: AvB3 IC50
Structures can show the parent of a compound that is named as a salt.
Reported pIC50 by item:
Recall that pIC50 is obtained by taking minus log10 of the concentration measured in molar.

# example entries with known answers
C#C[C@H](CC(=O)O)NC(=O)CNC(=O)c1cccc(NC(=N)N)c1 [Example 45, hydrochloride salt]; 9.16
N=C(N)Nc1cccc(C(=O)NCC(=O)NC(CC(=O)O)c2ccccc2OCC(=O)O)c1 (stereo not shown) [Example 255, trifluoroacetate salt]; 7.55
N=C(N)Nc1cccc(C(=O)NCC(=O)NC(CC(=O)O)c2cccc3ccccc23)c1 (racemic) [Example 41, trifluoroacetate salt]; 7.92
N=C(N)Nc1cccc(C(=O)NCC(=O)NC(CC(=O)O)C(=O)NCCO)c1 (racemic) [Example 89, trifluoroacetate salt]; 5.91
N=C(N)Nc1cccc(C(=O)NCC(=O)NC(CC(=O)O)c2cc(Cl)ccc2O)c1 (racemic) [Example 231, trifluoroacetate salt, monohydrate]; 8.52

Challenge: Form: Entry = N=C(N)Nc1cc(C(=O)NCC(=O)NC(CC(=O)O)c2ccccc2)ccc1Cl (stereo not shown) | System = Human vitronectin receptor (αvβ3) (Homo sapiens, UniProt P05106+P06756) | pIC50 = ____
Response given: 8.24

###

Measured target: Human fibrinogen receptor (αIIbβ3) (Homo sapiens, UniProt P05106+P08514)
Construct: Human fibrinogen receptor (αIIbβ3) was purified from outdated platelets; from tissue; host or cells: outdated human platelets
Assay procedure: Purified IIb/IIIa receptor assay (solid phase receptor assay, competition with biotinylated vitronectin)
Type: binding
Experimental setup: read-out: IIb/IIIa IC50
Where a name gives a salt, the structure may show the parent alone.
Rule: IC50 below 300 nM gives true. Equal to or above 300 nM gives false.

Use these answered entries as a reference point.
O=C(O)CC(NC(=O)CNC(=O)c1cc(NC2=NCCCCC2)cc(NC2=NCCCCC2)c1)c1cccnc1 (racemic); true
N=C(N)Nc1cccc(C(=O)NCC(=O)NC(CC(=O)O)c2cc(Cl)ccc2O)c1 (racemic) [Example 231, trifluoroacetate salt, monohydrate]; false
COc1cc(OC)cc(C(CC(=O)O)NC(=O)CNC(=O)c2cccc(NC(=N)N)c2)c1 (racemic) [Example 195, trifluoroacetate salt]; true
N=C(N)Nc1cc(C(=O)NCC(=O)NC(CC(=O)O)c2cc(Cl)cc(Br)c2)cc(C(F)(F)F)c1 (racemic) [Example 216, trifluoroacetate salt]; false
O=C(O)CCNC(=O)Nc1cccc(C(=O)NCC(=O)NC(CC(=O)O)c2cccnc2)c1 (stereo not shown) [Example 129, trifluoroacetate salt]; false
O=C(O)CC(NC(=O)CNC(=O)c1cccc(Nc2nc3ccccc3o2)c1)c1cccnc1 (stereo not shown) [Example 286, trifluoroacetate salt]; false

Challenge: Quick check: IC50 of C#C[C@H](CC(=O)O)NC(=O)CNC(=O)c1cccc(N/C(N)=N\C(N)=O)c1 [Example 171, trifluoroacetate salt, hydrate] under 300 nM?
Response given: true

Challenge: Quick check: IC50 of CC(CC(=O)O)NC(=O)CNC(=O)c1cccc(NC(=O)NCc2cc(Cl)cc(Cl)c2)c1 (stereo not shown) under 300 nM?
Response given: false

Challenge: Quick check: IC50 of `O=C(O)CCNC(=O)CNC(=O)c1cccc(NC(=O)NCc2ccccc2)c1` under 300 nM?
Response given: false

Challenge: Quick check: IC50 of N=C(N)Nc1cccc(C(=O)NCC(=O)NC(CC(=O)O)c2cc(Cl)cc(Cl)c2Cl)c1 (stereo not shown) [Example 254, trifluoroacetate salt] under 300 nM?
Response given: false

Challenge: Quick check: IC50 of Cc1ccc(S(=O)(=O)CCC(CC(=O)O)NC(=O)CNC(=O)c2cccc(NC(=N)N)c2)cc1 (racemic) [Example 67, trifluoroacetate salt] under 300 nM?
Response given: true

Challenge: Quick check: IC50 of O=C(O)CC(NC(=O)CNC(=O)c1cccc(NC2=NCCC2)c1)c1cc(Cl)cc(Cl)c1 (racemic) [Example 203, trifluoroacetate salt] under 300 nM?
Response given: false

Challenge: Quick check: IC50 of N=C(N)Nc1cccc(C(=O)NCC(=O)NC(CC(=O)O)c2cccc(OCC(=O)O)c2)c1 (stereo not shown) [Example 260, trifluoroacetate salt] under 300 nM?
Response given: true
